Taken from the supplement of paper PMC7877785.

assay: self-splicing fitness, log relative to wild type (ln ratio); higher = more splicing; Tetrahymena group I intron in knt gene, E. coli kanamycin selection, DiMSum; sequences stand for … in CUCUCU…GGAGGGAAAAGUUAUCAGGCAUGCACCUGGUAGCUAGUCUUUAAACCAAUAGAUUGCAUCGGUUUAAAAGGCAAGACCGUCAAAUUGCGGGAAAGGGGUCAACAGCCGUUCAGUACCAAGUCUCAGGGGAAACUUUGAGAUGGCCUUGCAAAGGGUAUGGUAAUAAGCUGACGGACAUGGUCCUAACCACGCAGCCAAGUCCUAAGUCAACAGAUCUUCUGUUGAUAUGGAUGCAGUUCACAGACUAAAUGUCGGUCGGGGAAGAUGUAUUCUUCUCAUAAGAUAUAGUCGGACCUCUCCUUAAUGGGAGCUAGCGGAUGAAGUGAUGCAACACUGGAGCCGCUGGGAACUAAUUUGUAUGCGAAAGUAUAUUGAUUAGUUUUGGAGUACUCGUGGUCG; conditions: 37 °C;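 note: selection with 25 µg/mL kanamycin versus none on LB agar overnight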
Would you mind telling me the reported self-splicing fitness (ln) of each entry?

q: Given "CGCGAGCAAUAUUACGGUAG" , state its recorded self-splicing fitness (ln).
a: -0.901

q: Further, for "AUGCAGCAAUAUUACGUUUC" ?
a: -3.31

q: Further, for "UGGAAGCAAUAUUACGACGA" ?
a: -0.862

q: Further, for "GAAUAGCAAUAUUACGGAGC" ?
a: -1.77

q: Further, for "UCUGAGCAAUAUUACGGGGA" ?
a: -1.97

q: Further, for "UGUUAGCAAUAUUACGUGGU" ?
a: -2.76

q: Further, for "GCUUAGCAAUAUUACGUGAA" ?
a: 0.311

q: Further, for "UUCGAGCAAUAUUACGGUCG" ?
a: -1.91

q: Further, for "CCGGAGCAAUAUUACGGCUU" ?
a: -1.49

q: Further, for "AACGAGCAAUAUUACGUACC" ?
a: -1.9

q: Further, for "GCUAAGCAAUAUUACGUCCG" ?
a: -0.712

q: Further, for "GUUGAGCAAUAUUACGAAGG" ?
a: -2.68

q: Further, for "CAGUAGCAAUAUUACGCUUA" ?
a: -0.832

q: Further, for "GCUCAGCAAUAUUACGCGGC" ?
a: -1.46

q: Further, for "CGUAAGCAAUAUUACGGUGC" ?
a: -3.7

q: Further, for "AUUCAGCAAUAUUACGAAUC" ?
a: -0.519

q: Further, for "GAACAGCAAUAUUACGCGAC" ?
a: -2.36

q: Further, for "AGGCAGCAAUAUUACGUCAU" ?
a: -1.1

q: Further, for "ACCCAGCAAUAUUACGAACA" ?
a: -1.35

q: Further, for "AAGAAGCAAUAUUACGCCCU" ?
a: 0.0852

q: Further, for "CAACAGCAAUAUUACGUGGA" ?
a: -2.08

q: Further, for "CUACAGCAAUAUUACGAUGA" ?
a: -2.13

q: Further, for "CGCAAGCAAUAUUACGGCAC" ?
a: -1.29

q: Further, for "CAGGAGCAAUAUUACGUAGU" ?
a: -1.55

q: Further, for "CCACAGCAAUAUUACGAAUC" ?
a: -2.3

q: Further, for "UGAGAGCAAUAUUACGGGGA" ?
a: -2.77

q: Further, for "AGAGAGCAAUAUUACGUUGU" ?
a: -3.07

q: Further, for "UAACAGCAAUAUUACGCUCA" ?
a: 0.174

q: Further, for "UUUAAGCAAUAUUACGAAUG" ?
a: -0.41

q: Further, for "CACCAGCAAUAUUACGCCGC" ?
a: -2.43

q: Further, for "CUGGAGCAAUAUUACGUGCG" ?
a: -1.19

q: Further, for "UAUCAGCAAUAUUACGAGAC" ?
a: -1.75

q: Further, for "GAUCAGCAAUAUUACGAGAU" ?
a: -1.55

q: Further, for "GGACAGCAAUAUUACGCCUU" ?
a: -0.194

q: Further, for "GAUCAGCAAUAUUACGUCUG" ?
a: -1.84

q: Further, for "CAGAAGCAAUAUUACGUGUA" ?
a: -1.25

q: Further, for "GAUCAGCAAUAUUACGUCAC" ?
a: -2.13

q: Further, for "AUUCAGCAAUAUUACGCAGA" ?
a: -0.845

q: Further, for "CACCAGCAAUAUUACGUCCU" ?
a: -1.87

q: Further, for "GCUGAGCAAUAUUACGCCAG" ?
a: -2.73

q: Further, for "UAUGAGCAAUAUUACGGCUG" ?
a: -0.14

q: Further, for "AUCAAGCAAUAUUACGCUAA" ?
a: -1.1

q: Further, for "AUAAAGCAAUAUUACGGUAG" ?
a: -1.74

q: Further, for "AAGCAGCAAUAUUACGUGCU" ?
a: -1.85

q: Further, for "CCUCAGCAAUAUUACGCUGC" ?
a: -1.69

q: Further, for "GAAUAGCAAUAUUACGCACG" ?
a: -0.764

q: Further, for "UUAAAGCAAUAUUACGGACC" ?
a: 0.778

q: Further, for "UAUCAGCAAUAUUACGGCCG" ?
a: 0.391

q: Further, for "AGUCAGCAAUAUUACGAGCC" ?
a: 0.0229

q: Further, for "GGACAGCAAUAUUACGCAGU" ?
a: -1.5

q: Further, for "UGGAAGCAAUAUUACGAACA" ?
a: -0.937

q: Further, for "CACUAGCAAUAUUACGGCAC" ?
a: -1.53

q: Further, for "CGUAAGCAAUAUUACGGAAU" ?
a: -1.85

q: Further, for "GCCGAGCAAUAUUACGACGU" ?
a: -0.741

q: Further, for "GCGCAGCAAUAUUACGCCCG" ?
a: 0.0341

q: Further, for "AUUCAGCAAUAUUACGUACA" ?
a: 0.309

q: Further, for "AGAGAGCAAUAUUACGUGCG" ?
a: -1.79

q: Further, for "CUGAAGCAAUAUUACGGCGG" ?
a: -0.503

q: Further, for "AACCAGCAAUAUUACGUAUC" ?
a: -1.39

q: Further, for "GAGUAGCAAUAUUACGGCUG" ?
a: -1.54

q: Further, for "GGGUAGCAAUAUUACGUAAU" ?
a: -0.379

q: Further, for "GUCCAGCAAUAUUACGGAUA" ?
a: 0.0186

q: Further, for "UGUCAGCAAUAUUACGGAAC" ?
a: -2.23

q: Further, for "GGAAAGCAAUAUUACGAUUC" ?
a: -0.276

q: Further, for "UAGUAGCAAUAUUACGCUUA" ?
a: -0.806

q: Further, for "CUAGAGCAAUAUUACGGGAG" ?
a: -0.0261

q: Further, for "UCGUAGCAAUAUUACGUGUG" ?
a: -1.41
